Provide the reported abundance fitness of each item.
B1: Myocardin, residues 363 to 406; numbered along this chain, Q8IZQ8 (parent)
chain: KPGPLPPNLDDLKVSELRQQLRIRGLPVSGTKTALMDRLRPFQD

# Variants of: B1
# Assay name: abundance fitness (aPCA) (normalised: wild type 0, dead -1); higher = more abundant; growth selection in yeast, the domain comes from the species named
# Condition info: Homo sapiens
Answers are plain numbers.

Per the record, `Q19M` has abundance fitness of -0.206

Lab note: `R24N` gave abundance fitness of -0.695

`P6Q` yielded abundance fitness of -0.267

Please state, for each entry, its recorded abundance fitness.
1. G3A
2. D37P
3. K32R
4. L21P
5. P2S
6. V14M

stdout:
[0.126, -0.966, -0.012, -0.523, 0.184, -0.116]

Please supply abundance fitness for each of the following items, keeping them in order.
1. S29L
2. L39A
3. P4R
4. R38T
5. L9D
6. D44R

stdout:
[-0.333, -0.641, -0.059, -0.316, -0.873, -0.03]
